Target: Epidermal growth factor receptor (Homo sapiens, UniProt P00533)
Sequence (P00533 whole entry): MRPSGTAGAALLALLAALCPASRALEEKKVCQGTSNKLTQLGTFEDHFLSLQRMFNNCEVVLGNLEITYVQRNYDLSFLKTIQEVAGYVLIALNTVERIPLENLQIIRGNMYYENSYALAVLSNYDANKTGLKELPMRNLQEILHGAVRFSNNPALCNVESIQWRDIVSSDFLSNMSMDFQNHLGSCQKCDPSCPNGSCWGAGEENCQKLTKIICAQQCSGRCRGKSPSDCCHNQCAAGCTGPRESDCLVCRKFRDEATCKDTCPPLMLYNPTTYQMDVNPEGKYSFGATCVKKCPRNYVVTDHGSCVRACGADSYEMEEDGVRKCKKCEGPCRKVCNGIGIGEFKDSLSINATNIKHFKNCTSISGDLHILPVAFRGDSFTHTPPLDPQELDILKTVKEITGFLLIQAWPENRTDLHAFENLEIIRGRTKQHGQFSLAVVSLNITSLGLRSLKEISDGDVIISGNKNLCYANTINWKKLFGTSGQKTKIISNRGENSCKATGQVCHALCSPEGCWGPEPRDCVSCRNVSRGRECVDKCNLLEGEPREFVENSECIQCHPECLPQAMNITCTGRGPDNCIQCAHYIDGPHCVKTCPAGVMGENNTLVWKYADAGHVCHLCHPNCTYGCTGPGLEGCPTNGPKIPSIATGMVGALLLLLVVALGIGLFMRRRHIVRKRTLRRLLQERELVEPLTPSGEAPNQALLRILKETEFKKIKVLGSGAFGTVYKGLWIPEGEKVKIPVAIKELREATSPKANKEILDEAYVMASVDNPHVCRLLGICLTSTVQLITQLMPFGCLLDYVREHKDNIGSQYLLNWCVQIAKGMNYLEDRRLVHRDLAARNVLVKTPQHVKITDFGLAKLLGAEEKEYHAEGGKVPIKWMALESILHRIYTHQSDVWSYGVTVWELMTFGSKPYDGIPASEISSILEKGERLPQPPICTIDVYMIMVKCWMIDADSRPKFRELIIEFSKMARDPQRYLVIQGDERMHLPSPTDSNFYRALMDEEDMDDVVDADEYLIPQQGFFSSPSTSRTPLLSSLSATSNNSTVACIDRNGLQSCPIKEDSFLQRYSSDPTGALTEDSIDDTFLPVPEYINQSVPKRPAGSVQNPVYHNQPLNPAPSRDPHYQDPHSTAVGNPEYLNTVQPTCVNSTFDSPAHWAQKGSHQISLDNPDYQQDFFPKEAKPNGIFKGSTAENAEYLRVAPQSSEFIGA
Experiment: Inhibition of human full length HER1 assessed as phosphorylation state at 10 uM by ELISA assay
Value Type: inhibition
Please answer in the form of a number followed by its unit of measurement.

Smiles Record: Cc1ccc(C(=O)COc2cccc(-c3cnc4ccccc4n3)c2)cc1
Value Type: inhibition
Result: 83.9%

Smiles Record: O=C(CSc1nnc2ccc(-c3ccccc3)nn12)NC(=O)Nc1ccccc1
Value Type: inhibition
Result: 76.1%

Looking up O=[N+]([O-])c1cc(-c2ccc(/C=N/c3nc4ccccn4c3-c3ccco3)o2)ccc1Cl , I see its inhibition listed as 80.5%

Looking up Brc1cccc(CNc2ccc(-c3nc4ccccc4o3)cc2)c1 , I see its inhibition listed as 79.9%

Looking up Nc1ncn(Cc2ccccc2)c2nc(SCCOc3ccccc3F)nc1-2 , I see its inhibition listed as 81.8%

Looking up Cc1ccc2c(C)nc(Nc3nc(O)cc(CSc4nnnn4-c4ccccc4)n3)nc2c1 , I see its inhibition listed as 83%

----------
Each entry below carries its reported IC50.
Experiment: Antiproliferative activity against human SKBR3 cells overexpressing HER2 by MTT assay
Type: functional, cell-based
Details: SK-BR-3
Reply numerically in µM, unit not repeated.

Previously resolved entries follow.
Smiles Record: Cc1ccc2c(C)nc(Nc3nc(O)cc(CSc4nnnn4-c4ccccc4)n3)nc2c1
Unit Name: µM
IC50: 1.03
--
Smiles Record: Cc1ccc(C(=O)COc2cccc(-c3cnc4ccccc4n3)c2)cc1
Unit Name: µM
IC50: 3.11
--
Smiles Record: O=C(CSc1nnc2ccc(-c3ccccc3)nn12)NC(=O)Nc1ccccc1
Unit Name: µM
IC50: 1.64
--
Smiles Record: Brc1cccc(CNc2ccc(-c3nc4ccccc4o3)cc2)c1
Unit Name: µM
IC50: 1.24
--
Smiles Record: Nc1ncn(Cc2ccccc2)c2nc(SCCOc3ccccc3F)nc1-2
Unit Name: µM
IC50: 2.26

# next molecule below
Looking up O=[N+]([O-])c1cc(-c2ccc(/C=N/c3nc4ccccn4c3-c3ccco3)o2)ccc1Cl , I see its IC50 listed as 3.17

----------
Each entry below carries its reported inhibition.
Molecular target: UniProtKB P04626
Sequence (P04626 whole entry): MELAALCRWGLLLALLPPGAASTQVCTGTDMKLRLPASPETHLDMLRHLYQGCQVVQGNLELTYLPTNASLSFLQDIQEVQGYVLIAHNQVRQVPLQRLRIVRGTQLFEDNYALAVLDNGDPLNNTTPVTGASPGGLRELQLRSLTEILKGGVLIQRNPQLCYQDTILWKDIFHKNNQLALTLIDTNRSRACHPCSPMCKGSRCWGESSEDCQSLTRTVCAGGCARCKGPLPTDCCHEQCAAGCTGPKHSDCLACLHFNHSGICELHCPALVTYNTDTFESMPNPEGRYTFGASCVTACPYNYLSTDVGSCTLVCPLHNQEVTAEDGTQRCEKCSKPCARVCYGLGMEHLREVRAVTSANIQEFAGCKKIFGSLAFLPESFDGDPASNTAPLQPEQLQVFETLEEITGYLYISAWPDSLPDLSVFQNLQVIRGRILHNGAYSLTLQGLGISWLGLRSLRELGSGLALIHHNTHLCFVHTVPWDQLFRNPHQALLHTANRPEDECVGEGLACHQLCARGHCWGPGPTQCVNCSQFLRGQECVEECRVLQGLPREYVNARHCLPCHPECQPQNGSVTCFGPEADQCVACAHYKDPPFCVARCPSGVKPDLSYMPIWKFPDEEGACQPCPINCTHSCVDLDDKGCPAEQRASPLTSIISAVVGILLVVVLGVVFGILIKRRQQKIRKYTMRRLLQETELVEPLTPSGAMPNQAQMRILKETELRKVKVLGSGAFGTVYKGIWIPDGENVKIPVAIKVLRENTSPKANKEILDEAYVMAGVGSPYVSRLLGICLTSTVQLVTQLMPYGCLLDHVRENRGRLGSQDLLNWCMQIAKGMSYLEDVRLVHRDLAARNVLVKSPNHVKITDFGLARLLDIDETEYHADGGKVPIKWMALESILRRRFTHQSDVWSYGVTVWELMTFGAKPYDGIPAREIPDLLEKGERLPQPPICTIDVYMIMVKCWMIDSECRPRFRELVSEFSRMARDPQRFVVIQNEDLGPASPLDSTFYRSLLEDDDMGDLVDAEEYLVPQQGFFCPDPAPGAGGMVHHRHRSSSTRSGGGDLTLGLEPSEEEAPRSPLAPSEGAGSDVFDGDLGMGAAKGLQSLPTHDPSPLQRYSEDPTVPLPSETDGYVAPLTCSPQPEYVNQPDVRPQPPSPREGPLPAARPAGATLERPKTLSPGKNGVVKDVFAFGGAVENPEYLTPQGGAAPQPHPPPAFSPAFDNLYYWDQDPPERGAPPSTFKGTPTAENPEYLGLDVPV
Assay: Inhibition of human full length HER2 assessed as phosphorylation state at 10 uM by ELISA assay
Reply numerically in %, unit not repeated.

Smiles Record: Cc1ccc2c(C)nc(Nc3nc(O)cc(CSc4nnnn4-c4ccccc4)n3)nc2c1
inhibition / %: 85.8

Looking up O=[N+]([O-])c1cc(-c2ccc(/C=N/c3nc4ccccn4c3-c3ccco3)o2)ccc1Cl , I see its inhibition listed as 67.1

Looking up O=C(CSc1nnc2ccc(-c3ccccc3)nn12)NC(=O)Nc1ccccc1 , I see its inhibition listed as 75.1

Looking up Brc1cccc(CNc2ccc(-c3nc4ccccc4o3)cc2)c1 , I see its inhibition listed as 73.1

Looking up Cc1ccc(C(=O)COc2cccc(-c3cnc4ccccc4n3)c2)cc1 , I see its inhibition listed as 67

Looking up Nc1ncn(Cc2ccccc2)c2nc(SCCOc3ccccc3F)nc1-2 , I see its inhibition listed as 72.1

----------
Experiment: Antiproliferative activity against human BT474 cells overexpressing HER2 by MTT assay
Format: functional, cell-based
Details: BT-474
Lab note: compare IC50 with 800 nM, writing yes (1) if less and no (0) if equal or more.

Study these solved cases before continuing.
Smiles Record: Cc1ccc2c(C)nc(Nc3nc(O)cc(CSc4nnnn4-c4ccccc4)n3)nc2c1
Category Label: yes (1)
--
Smiles Record: Nc1ncn(Cc2ccccc2)c2nc(SCCOc3ccccc3F)nc1-2
Category Label: yes (1)
--
Smiles Record: O=[N+]([O-])c1cc(-c2ccc(/C=N/c3nc4ccccn4c3-c3ccco3)o2)ccc1Cl
Category Label: no (0)

Determine if Cc1ccc(C(=O)COc2cccc(-c3cnc4ccccc4n3)c2)cc1 shows IC50 strictly lower than 800 nM.
yes (1)

Determine if Brc1cccc(CNc2ccc(-c3nc4ccccc4o3)cc2)c1 shows IC50 strictly lower than 800 nM.
yes (1)
